Target: T1, SRA domain of mouse UHRF1 (Mus musculus, UniProt Q8VDF2 419-628)
T1 sequence: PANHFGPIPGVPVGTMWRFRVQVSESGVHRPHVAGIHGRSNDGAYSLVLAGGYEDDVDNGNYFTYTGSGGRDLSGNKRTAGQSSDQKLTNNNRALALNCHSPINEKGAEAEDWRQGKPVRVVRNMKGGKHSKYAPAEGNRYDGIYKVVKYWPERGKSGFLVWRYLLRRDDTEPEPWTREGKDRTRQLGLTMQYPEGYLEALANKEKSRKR
Assay: MST; MST: PBS-T (0.05% Tween-20), 50 nM labelled SRA, 20 min, room temperature; EMSA: 20 mM Tris-HCl pH 7.5, 150 mM NaCl, 0.5 mM EDTA, 1 mM DTT, 100 ng/ul BSA, 250 nM of each DNA, 4.69-300 nM protein, 30 min on ice, 6% PAGE 0.5x TBE; melting: 50 mM Tris-HCl pH 7.5, 0.5 mM b-ME, 10 mM EDTA
Conditions: protein: recombinant; tags: His6; NT-647 (RED-tris-NTA) label in MST
Property name: pKd
Note on pKd: it is the negative log10 of concentration, concentration in mol/L.

Memo: 42 bp mC-caC' (dsDNA, 5-methylcytosine on one strand, 5-carboxylcytosine on the other at central CpG) DNA 1: GGATGATGACTCTTCTGGTCCGGATGGTAGTTAAGTGTTGAG DNA 2: CTCAACACTTAACTACCATCCGGACCAGAAGAGTCATCATCC , reported pKd: 6.41
